NET pIC50 by entry:
Target: NET (norepinephrine transporter) (Rattus norvegicus)
Construct: Cortex from rat brain was collected and homogenised; from tissue; host or cells: rat brain cortex
Sequence (Q63380 1-617): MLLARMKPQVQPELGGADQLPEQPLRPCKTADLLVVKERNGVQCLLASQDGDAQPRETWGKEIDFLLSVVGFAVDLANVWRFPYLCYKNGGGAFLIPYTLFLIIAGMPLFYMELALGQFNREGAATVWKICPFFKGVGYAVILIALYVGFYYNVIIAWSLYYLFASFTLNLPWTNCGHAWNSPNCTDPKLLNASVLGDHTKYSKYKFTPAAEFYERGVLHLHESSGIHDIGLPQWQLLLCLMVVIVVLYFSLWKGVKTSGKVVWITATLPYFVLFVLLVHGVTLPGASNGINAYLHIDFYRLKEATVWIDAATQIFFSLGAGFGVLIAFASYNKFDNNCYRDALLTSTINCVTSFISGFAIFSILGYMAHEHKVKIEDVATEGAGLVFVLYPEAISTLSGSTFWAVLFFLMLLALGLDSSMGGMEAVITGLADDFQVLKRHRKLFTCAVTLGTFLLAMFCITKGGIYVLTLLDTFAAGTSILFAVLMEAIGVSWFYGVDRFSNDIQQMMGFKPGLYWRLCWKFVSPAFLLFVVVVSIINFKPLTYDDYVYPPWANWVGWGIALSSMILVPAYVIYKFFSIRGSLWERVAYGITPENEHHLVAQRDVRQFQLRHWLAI
Experiment: In vitro determination of NET reuptake inhibition ([3H]Nixosetine binding, rat brain cortex)
Settings: rat brain cortex

compound	NET pIC50
Fc1ccc2c(c1)[C@@H]1O[C@@H](CN3CCc4ccccc4C3)C[C@@H]1c1ccccc1C2.O=C(O)C(F)(F)F	5.49
COc1ccc2c(c1)C1OC(CN3CCC(O)CC3)CC1c1ccccc1O2.O=C(O)C(=O)O (racemic) [Compound 287]	<5
COc1ccc2c(c1)C1OC(CN3CCC(O)CC3)CC1c1ccccc1O2.O=C(O)C(=O)O (racemic) [Compound 288]	<5
N#CC1=CCN(C[C@H]2C[C@@H]3c4ccccc4Cc4ccc(F)cc4[C@@H]3O2)CC1.O=C(O)C(F)(F)F	5.78
CC(=O)OCCN1[C@H](C)CN(C[C@H]2C[C@@H]3c4ccccc4Cc4ccc(F)cc4[C@@H]3O2)C[C@@H]1C.O=C(O)C(=O)O	<5
N#CC1CCCN(C[C@H]2C[C@@H]3c4ccccc4Cc4ccc(F)cc4[C@@H]3O2)CC1.O=C(O)C(=O)O.O=C(O)C(=O)O (mixture of isomers)	<5
